# target_entity: EGFR Fab binding to the EGFR antigen
# assay_method_text: ELISA competitive inhibition of EGFR Fab binding to EGFR antigen
# experimental_setup: read-out: IC50 for peptide inhibition of αEGFR Fab binding to EGFR antigen; Table 18
pIC50: −log10 of the molar value.
property: pIC50

compound | observed_result
CC[C@H](C)[C@@H]1NC(=O)[C@H](CC(C)C)NC(=O)[C@H](C)NC(=O)[C@@H]2CCCN2C(=O)[C@@H](NC(=O)[C@@H]2CCCN2)CSSC[C@@H](C(=O)N[C@H](C(=O)O)C(C)C)NC(=O)[C@H]([C@@H](C)CC)NC(=O)[C@H](C(C)C)NC(=O)[C@H](CCC(=O)O)NC(=O)[C@H](C)NC(=O)[C@H](C(C)C)NC(=O)[C@H](CC(=O)O)NC1=O [Peptide-14] | < 6.52

----------
# target_entity: EGFR IgG binding to the EGFR antigen
# assay_method_text: ELISA competitive inhibition of EGFR IgG binding to EGFR antigen
# experimental_setup: read-out: IC50 for peptide inhibition of EGFR IgG binding to EGFR antigen; Table 13
pIC50: −log10 of the molar value.
Below, each entry is listed alongside its reported pIC50.

compound | pIC50
CC(C)[C@@H]1NC(=O)[C@H](CCCNC(=N)N)NC(=O)[C@H](CC(=O)O)NC(=O)[C@H](Cc2c[nH]c3ccccc23)NC(=O)[C@H](CCC(N)=O)NC(=O)[C@@H](NC(=O)[C@@H](N)CC(N)=O)CSSC[C@@H](C(=O)N[C@@H](CO)C(=O)O)NC(=O)[C@H](C)NC(=O)[C@H](Cc2ccc(O)cc2)NC(=O)[C@H]([C@@H](C)O)NC(=O)[C@H](Cc2c[nH]cn2)NC(=O)[C@H](CCC(=O)O)NC1=O [Peptide-3] | < 6.52
CSCC[C@H](N)C(=O)N[C@@H](CC(N)=O)C(=O)N[C@H]1CSSC[C@@H](C(=O)N[C@@H](CC(C)C)C(=O)N[C@H](C(=O)O)C(C)C)NC(=O)[C@H](Cc2ccc(O)cc2)NC(=O)[C@H](CCC(=O)O)NC(=O)[C@H](C(C)C)NC(=O)[C@H](Cc2c[nH]c3ccccc23)NC(=O)[C@H](CC(C)C)NC(=O)[C@H](CCCNC(=N)N)NC(=O)[C@H](CC(N)=O)NC(=O)[C@H](CC(C)C)NC1=O [Peptide-5] | < 6.52

----------
# target_entity: EGFR Fab binding to the EGFR antigen
# assay_method_text: ELISA competitive inhibition of EGFR Fab binding to EGFR antigen
# experimental_setup: Table 21, peptide-8 alanine scanning mutants; read-out: IC50
Below, each entry is listed alongside its reported IC50.
property: IC50

compound | property | observed_result
CC[C@H](C)[C@@H]1NC(=O)[C@H](Cc2c[nH]cn2)NC(=O)[C@H](CO)NC(=O)[C@H](CCCNC(=N)N)NC(=O)[C@@H](NC(=O)[C@@H]2CCCN2)CSSC[C@@H](C(=O)N[C@H](C(=O)O)C(C)C)NC(=O)[C@H]([C@@H](C)CC)NC(=O)[C@@H]2CCCN2C(=O)[C@H](C)NC(=O)[C@H](C)NC(=O)[C@H](C(C)C)NC(=O)[C@H](CC(=O)O)NC1=O [Peptide-24] | IC50 | > 100 µM
CC[C@H](C)[C@@H]1NC(=O)[C@H](Cc2c[nH]cn2)NC(=O)[C@H](CO)NC(=O)[C@H](CCCNC(=N)N)NC(=O)[C@@H](NC(=O)[C@@H]2CCCN2)CSSC[C@@H](C(=O)N[C@H](C(=O)O)C(C)C)NC(=O)[C@H]([C@@H](C)CC)NC(=O)[C@@H]2CCCN2C(=O)[C@H](CCCCN)NC(=O)[C@H](C)NC(=O)[C@H](C)NC(=O)[C@H](CC(=O)O)NC1=O [Peptide-23] | IC50 | 3.8 µM
CC[C@H](C)[C@@H]1NC(=O)[C@H](C)NC(=O)[C@H](CCCCN)NC(=O)[C@H](C)NC(=O)[C@H](C(C)C)NC(=O)[C@H](CC(=O)O)NC(=O)[C@H]([C@@H](C)CC)NC(=O)[C@H](Cc2c[nH]cn2)NC(=O)[C@H](CO)NC(=O)[C@H](CCCNC(=N)N)NC(=O)[C@@H](NC(=O)[C@@H]2CCCN2)CSSC[C@@H](C(=O)N[C@H](C(=O)O)C(C)C)NC1=O [Peptide-25] | IC50 | > 100 µM
CC[C@H](C)[C@@H]1NC(=O)[C@H](Cc2c[nH]cn2)NC(=O)[C@H](CO)NC(=O)[C@H](CCCNC(=N)N)NC(=O)[C@@H](NC(=O)[C@@H]2CCCN2)CSSC[C@@H](C(=O)N[C@@H](C)C(=O)O)NC(=O)[C@H]([C@@H](C)CC)NC(=O)[C@@H]2CCCN2C(=O)[C@H](CCCCN)NC(=O)[C@H](C)NC(=O)[C@H](C(C)C)NC(=O)[C@H](CC(=O)O)NC1=O [Peptide-27] | IC50 | 3.1 µM
CC[C@H](C)[C@@H]1NC(=O)[C@H](Cc2c[nH]cn2)NC(=O)[C@H](CO)NC(=O)[C@H](CCCNC(=N)N)NC(=O)[C@@H](NC(=O)[C@@H]2CCCN2)CSSC[C@@H](C(=O)N[C@H](C(=O)O)C(C)C)NC(=O)[C@H](C)NC(=O)[C@@H]2CCCN2C(=O)[C@H](CCCCN)NC(=O)[C@H](C)NC(=O)[C@H](C(C)C)NC(=O)[C@H](CC(=O)O)NC1=O [Peptide-26] | IC50 | > 100 µM

----------
# target_entity: EGFR Fab
# assay_method_text: ELISA binding of peptides to EGFR Fab
# experimental_setup: read-out: EC50 for peptide binding to αEGFR Fab; Table 25, peptide-8 optimization
pEC50: −log10 of the molar value.
Below, each entry is listed alongside its reported pEC50.
property: pEC50

compound | target_entity | observed_result
CC[C@H](C)[C@@H]1NC(=O)[C@H](CC(=O)O)NC(=O)[C@H](Cc2ccccc2)NC(=O)[C@H](Cc2c[nH]cn2)NC(=O)[C@H](CO)NC(=O)[C@H](CC(N)=O)NC(=O)[C@@H](NC(=O)[C@@H]2CCCN2)CSSC[C@@H](C(=O)N[C@@H](CC(C)C)C(=O)O)NC(=O)[C@H]([C@@H](C)CC)NC(=O)[C@@H]2CCCN2C(=O)[C@H](CCCCN)NC(=O)[C@H](C)NC1=O [Peptide-44] | EGFR Fab | 6.47
CC[C@H](C)[C@@H]1NC(=O)[C@@H]2CCCN2C(=O)[C@H](CCCCN)NC(=O)[C@H](C)NC(=O)[C@H](CC(C)C)NC(=O)[C@H](CC(=O)O)NC(=O)[C@H](Cc2ccc(O)cc2)NC(=O)[C@H](Cc2c[nH]cn2)NC(=O)[C@H](CO)NC(=O)[C@H](CC(N)=O)NC(=O)[C@@H](NC(=O)[C@@H]2CCCN2)CSSC[C@@H](C(=O)N[C@H](C(=O)O)[C@@H](C)O)NC1=O [Peptide-43] | EGFR Fab | 6.73

----------
# target_entity: EGFR Fab binding to the EGFR antigen
# assay_method_text: ELISA competitive inhibition of EGFR Fab binding to EGFR antigen
# experimental_setup: read-out: IC50 for peptide inhibition of αEGFR Fab binding to EGFR antigen; Table 27, peptide-8 optimization
Below, each entry is listed alongside its reported IC50.

molecule | unit_info | IC50
CC[C@H](C)[C@@H]1NC(=O)[C@@H]2CCCN2C(=O)[C@H](CCCCN)NC(=O)[C@H](C)NC(=O)[C@@H]2CCCN2C(=O)[C@H](CC(=O)O)NC(=O)[C@H](CC(N)=O)NC(=O)[C@H](Cc2c[nH]cn2)NC(=O)[C@H](CO)NC(=O)[C@H](CC(C)C)NC(=O)[C@@H](NC(=O)[C@@H]2CCCN2)CSSC[C@@H](C(=O)N[C@@H](C)C(=O)O)NC1=O [Peptide-41] | µM | 4.25
CC[C@H](C)[C@@H]1NC(=O)[C@H](CC(=O)O)NC(=O)[C@H](Cc2ccccc2)NC(=O)[C@H](Cc2c[nH]cn2)NC(=O)[C@H](CO)NC(=O)[C@H](CC(N)=O)NC(=O)[C@@H](NC(=O)[C@@H]2CCCN2)CSSC[C@@H](C(=O)N[C@@H](CC(C)C)C(=O)O)NC(=O)[C@H]([C@@H](C)CC)NC(=O)[C@@H]2CCCN2C(=O)[C@H](CCCCN)NC(=O)[C@H](C)NC1=O [Peptide-44] | µM | 6.57
CC[C@H](C)[C@@H]1NC(=O)[C@@H]2CCCN2C(=O)[C@H](CCCCN)NC(=O)[C@H](C)NC(=O)[C@@H]2CCCN2C(=O)[C@H](CC(=O)O)NC(=O)[C@H](Cc2ccccc2)NC(=O)[C@H](Cc2c[nH]cn2)NC(=O)[C@H](Cc2ccccc2)NC(=O)[C@H](CC(C)C)NC(=O)[C@@H](NC(=O)[C@@H]2CCCN2)CSSC[C@@H](C(=O)N[C@@H](CO)C(=O)O)NC1=O [Peptide-46, PCLFHFDPAKPICS] | µM | 0.3

Sourced from patent US12433953B2
